SYSTEM_TESTED: Casein kinase II (Homo sapiens) (UniProt P67870+P68400+P19784)
EXPERIMENT_SUMMARY: Inhibition of recombinant human CK2 using RRRDDDSDDD as substrate assessed as residual activity at 10 uM after 20 mins by beta counting analysis in presence of [gamma-labeled 32P]ATP relative to control
Assay type: protein-complex assay
PARAMETER_MEASURED: Activity (%)
Report the value in % with no unit label.

A selection of reference data follows.
{"STRUCTURE_SMILES_STRING": "CCN1CCN(Cc2c(O)ccc3oc(-c4cc(OC)c(OC)c(OC)c4)cc(=O)c23)CC1", "UNIT_TAG": "%", "Activity": 77}
{"STRUCTURE_SMILES_STRING": "COc1cc(-c2cc(=O)c3cc(C)ccc3o2)cc(OC)c1OC", "UNIT_TAG": "%", "Activity": 92}
{"STRUCTURE_SMILES_STRING": "Cc1ccc2oc(-c3ccc(F)cc3)c(O)c(=O)c2c1", "UNIT_TAG": "%", "Activity": 60}

Read the next record carefully.
Sure, the documented Activity for "Cc1ccc2oc(-c3ccc(Cl)cc3)c(O)c(=O)c2c1" is 38

---

SYSTEM_TESTED: Casein kinase II (Homo sapiens, UniProt P19784+P67870+P68400)
Sequence (P67870 whole entry): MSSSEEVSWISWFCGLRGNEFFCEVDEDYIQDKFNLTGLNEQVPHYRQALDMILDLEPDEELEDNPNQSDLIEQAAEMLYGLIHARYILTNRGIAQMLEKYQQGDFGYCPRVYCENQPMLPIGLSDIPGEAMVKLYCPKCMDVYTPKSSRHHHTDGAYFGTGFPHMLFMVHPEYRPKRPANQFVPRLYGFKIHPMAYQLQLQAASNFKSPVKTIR
Sequence (P68400 whole entry): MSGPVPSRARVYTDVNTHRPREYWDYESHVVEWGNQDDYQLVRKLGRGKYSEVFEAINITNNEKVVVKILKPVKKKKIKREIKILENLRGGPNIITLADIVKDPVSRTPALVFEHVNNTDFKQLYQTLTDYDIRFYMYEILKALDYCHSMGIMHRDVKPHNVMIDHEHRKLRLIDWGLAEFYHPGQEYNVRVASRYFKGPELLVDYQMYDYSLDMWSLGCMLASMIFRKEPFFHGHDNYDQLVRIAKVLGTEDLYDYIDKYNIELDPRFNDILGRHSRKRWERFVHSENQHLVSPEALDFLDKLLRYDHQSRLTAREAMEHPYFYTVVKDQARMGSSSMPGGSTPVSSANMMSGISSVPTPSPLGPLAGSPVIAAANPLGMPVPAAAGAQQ
Sequence (P19784 whole entry): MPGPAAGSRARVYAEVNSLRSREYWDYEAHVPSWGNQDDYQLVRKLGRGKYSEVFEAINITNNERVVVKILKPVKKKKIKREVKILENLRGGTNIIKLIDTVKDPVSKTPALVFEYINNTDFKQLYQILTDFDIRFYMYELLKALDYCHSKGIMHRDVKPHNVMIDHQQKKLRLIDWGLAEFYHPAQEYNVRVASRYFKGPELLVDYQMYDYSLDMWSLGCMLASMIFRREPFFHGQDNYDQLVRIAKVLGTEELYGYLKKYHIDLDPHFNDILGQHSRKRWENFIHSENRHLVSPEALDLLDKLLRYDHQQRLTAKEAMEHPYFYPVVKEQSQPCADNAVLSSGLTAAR
EXPERIMENT_SUMMARY: Inhibition of recombinant human CK2 using RRRDDDSDDD as substrate after 20 mins by beta counting analysis in presence of [gamma-labeled 32P]ATP
Assay type: protein-complex assay
pIC50: −log10 of the molar value.
pIC50: recorded values

{"STRUCTURE_SMILES_STRING": "COc1ccc(-c2cc(=O)c3c(CN4CCOCC4)c(O)ccc3o2)cc1", "READING": "< 4.52"}

Sure, the documented pIC50 for "Cc1ccc(-c2oc3ccc(C)cc3c(=O)c2OCC(=O)O)cc1" is < 4.52

Sure, the documented pIC50 for "COc1cc(-c2cc(=O)c3c(CN(C)Cc4ccccc4)c(O)ccc3o2)cc(OC)c1OC" is < 4.52

Sure, the documented pIC50 for "CN(C)c1ccc(-c2oc3ccccc3c(=O)c2O)cc1" is < 4.52

Sure, the documented pIC50 for "COc1cccc(-c2cc(=O)c3cc(C)cc(C)c3o2)c1O" is < 4.52

Sure, the documented pIC50 for "Cc1cc(C)c2oc(-c3ccc(O)cc3)cc(=O)c2c1" is 5.80

---

Activity: recorded values
SYSTEM_TESTED: Casein kinase II (Homo sapiens) (UniProt P67870+P68400+P19784)
EXPERIMENT_SUMMARY: Inhibition of recombinant human CK2 using RRRDDDSDDD as substrate assessed as residual activity at 10 uM after 20 mins by beta counting analysis in presence of [gamma-labeled 32P]ATP relative to control
Type: protein-complex assay

{"MOLECULE": "CN(C)c1ccc(-c2oc3ccccc3c(=O)c2O)cc1", "Activity": "73%"}

The measured Activity that "COc1ccc(-c2oc3ccc(C)cc3c(=O)c2OCC(=O)O)cc1" showed for Casein kinase II (Homo sapiens) (UniProt P67870+P68400+P19784) is 77%

The measured Activity that "COc1ccc(-c2cc(=O)c3c(CN(C)Cc4ccccc4)c(O)ccc3o2)cc1" showed for Casein kinase II (Homo sapiens) (UniProt P67870+P68400+P19784) is 73%

The measured Activity that "Cc1ccc(-c2oc3c(C)cc(C)cc3c(=O)c2OCC(=O)O)cc1" showed for Casein kinase II (Homo sapiens) (UniProt P67870+P68400+P19784) is 50%

The measured Activity that "COc1ccc(-c2oc3c(C)cc(C)cc3c(=O)c2OS(C)(=O)=O)cc1" showed for Casein kinase II (Homo sapiens) (UniProt P67870+P68400+P19784) is 46%

The measured Activity that "COc1ccc(-c2cc(=O)c3c4c(ccc3o2)OCN(Cc2ccco2)C4)cc1" showed for Casein kinase II (Homo sapiens) (UniProt P67870+P68400+P19784) is 17%

The measured Activity that "Cc1ccc2oc(-c3ccccc3)c(O)c(=O)c2c1" showed for Casein kinase II (Homo sapiens) (UniProt P67870+P68400+P19784) is 80%

The measured Activity that "COc1ccc(-c2cc(=O)c3cc(C)ccc3o2)cc1OC" showed for Casein kinase II (Homo sapiens) (UniProt P67870+P68400+P19784) is 81%

The measured Activity that "COc1cc(-c2cc(=O)c3ccccc3o2)ccc1O" showed for Casein kinase II (Homo sapiens) (UniProt P67870+P68400+P19784) is 5%

---

IC50: recorded values
SYSTEM_TESTED: Casein kinase II (Homo sapiens, UniProt P19784+P67870+P68400)
EXPERIMENT_SUMMARY: Inhibition of recombinant human CK2 using RRRDDDSDDD as substrate after 20 mins by beta counting analysis in presence of [gamma-labeled 32P]ATP
Assay type: protein-complex assay

{"STRUCTURE_SMILES_STRING": "COc1ccc(-c2oc3ccccc3c(=O)c2OC(C)=O)cc1", "READING": "> 30 µM"}
{"STRUCTURE_SMILES_STRING": "COc1cc(-c2cc(=O)c3c(CN4CCCCC4)c(O)ccc3o2)cc(OC)c1OC", "READING": "> 30 µM"}
{"STRUCTURE_SMILES_STRING": "COc1ccc(-c2cc(=O)c3cc(C)cc(C)c3o2)cc1O", "READING": "> 30 µM"}

Read the next record carefully.
Sure, the documented IC50 for "COc1ccc(-c2cc(=O)c3cc(C)ccc3o2)cc1OC" is > 30 µM

---

pIC50: recorded values
SYSTEM_TESTED: Casein kinase II (Homo sapiens, UniProt P19784+P67870+P68400)
EXPERIMENT_SUMMARY: Inhibition of recombinant human CK2 using RRRDDDSDDD as substrate after 20 mins by beta counting analysis in presence of [gamma-labeled 32P]ATP
Type: protein-complex assay
pIC50: −log10 of the molar value.

{"STRUCTURE_SMILES_STRING": "Cc1ccc2oc(-c3ccc(F)cc3)c(O)c(=O)c2c1", "pIC50": "< 4.52"}
{"STRUCTURE_SMILES_STRING": "COc1ccc(-c2cc(=O)c3c(CN4CCC(C)CC4)c(O)ccc3o2)cc1", "pIC50": "< 4.52"}
{"STRUCTURE_SMILES_STRING": "Cc1ccc(-c2oc3ccccc3c(=O)c2OCC(=O)N2CCOCC2)cc1", "pIC50": "< 4.52"}

Sure, the documented pIC50 for "Cc1ccc2oc(-c3ccc(Br)cc3)c(O)c(=O)c2c1" is < 4.52

Sure, the documented pIC50 for "COc1cc(-c2cc(=O)c3cc(O)ccc3o2)cc(OC)c1OC" is 4.59

Sure, the documented pIC50 for "COc1cc(-c2cc(=O)c3cc(Cl)cc(Cl)c3o2)ccc1O" is 8.00

Sure, the documented pIC50 for "COc1cc(-c2cc(=O)c3ccc4ccccc4c3o2)cc(Cl)c1O" is 7.06

Sure, the documented pIC50 for "CCOc1cc(-c2cc(=O)c3cc(C)ccc3o2)ccc1O" is 5.10

---

Activity: recorded values
SYSTEM_TESTED: Casein kinase II (Homo sapiens) (UniProt P67870+P68400+P19784)
EXPERIMENT_SUMMARY: Inhibition of recombinant human CK2 using RRRDDDSDDD as substrate assessed as residual activity at 10 uM after 20 mins by beta counting analysis in presence of [gamma-labeled 32P]ATP relative to control
Assay type: protein-complex assay
Report the value in % with no unit label.

A selection of reference data follows.
{"COMPOUND": "Cc1ccc(-c2cc(=O)c3cc(O)ccc3o2)cc1", "SYSTEM_TESTED": "Casein kinase II (Homo sapiens) (UniProt P67870+P68400+P19784)", "Activity / %": 35}
{"COMPOUND": "COc1ccc(-c2oc3ccccc3c(=O)c2O)cc1OC [3-HYDROXY-3',4'-DIMETHOXYFLAVONE]", "SYSTEM_TESTED": "Casein kinase II (Homo sapiens) (UniProt P67870+P68400+P19784)", "Activity / %": 66}
{"COMPOUND": "Cc1ccc(-c2oc3ccccc3c(=O)c2OCC(=O)N2CCOCC2)cc1", "SYSTEM_TESTED": "Casein kinase II (Homo sapiens) (UniProt P67870+P68400+P19784)", "Activity / %": 97}
{"COMPOUND": "COc1ccc(-c2cc(=O)c3cc(C)ccc3o2)cc1", "SYSTEM_TESTED": "Casein kinase II (Homo sapiens) (UniProt P67870+P68400+P19784)", "Activity / %": 73}
{"COMPOUND": "Cc1ccc2oc(-c3cc(Br)ccc3O)c(O)c(=O)c2c1", "SYSTEM_TESTED": "Casein kinase II (Homo sapiens) (UniProt P67870+P68400+P19784)", "Activity / %": 45}

Read the next record carefully.
The measured Activity that "COc1ccc(-c2oc3ccccc3c(=O)c2O)cc1" showed for Casein kinase II (Homo sapiens) (UniProt P67870+P68400+P19784) is 86
